- study-target: Alpha-2C adrenergic receptor (Homo sapiens) (UniProt P18825)
- Sequence (P18825 whole entry, looked up): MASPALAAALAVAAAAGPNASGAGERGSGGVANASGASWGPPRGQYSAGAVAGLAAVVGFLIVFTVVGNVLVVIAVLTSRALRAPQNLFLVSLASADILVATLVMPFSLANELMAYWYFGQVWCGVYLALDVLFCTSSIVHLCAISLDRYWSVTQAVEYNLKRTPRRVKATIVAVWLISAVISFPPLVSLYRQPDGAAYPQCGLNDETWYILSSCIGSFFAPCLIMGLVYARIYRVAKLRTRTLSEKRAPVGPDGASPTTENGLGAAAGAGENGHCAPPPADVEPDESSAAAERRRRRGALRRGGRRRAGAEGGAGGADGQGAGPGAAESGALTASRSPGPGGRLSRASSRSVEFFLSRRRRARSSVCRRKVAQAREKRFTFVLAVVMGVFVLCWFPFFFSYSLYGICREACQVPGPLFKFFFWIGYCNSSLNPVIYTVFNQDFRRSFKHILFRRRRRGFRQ
- experimental-protocol: modulators of alpha2C/GIRK thallium flux, primary screen, cell-based, HEK293 alpha2C/GIRK1/2 (AID 624);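 further: slope of fluorescence ratio to pre-addition baseline per second over 15 to 24 s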
- run-conditions: thallium flux BTC fluorescence, at 10 µM, actives lie on both sides
Activity calls are given as the source filed them.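 How the source made its calls: active means fluorescence slope after compound addition differing from the mean of all screened samples at 99.7% confidence, in either direction; inactive means the rest.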

{"compound": "COC(=O)c1ccc(-c2sc3nc(N4CCOCC4)c4c(c3c2N)CCCC4)o1", "slope": "0.0101 (inactive)"}
{"compound": "COc1ccc(OC)c(C2/C(=C(/O)c3ccc(C)cc3)C(=O)C(=O)N2Cc2ccco2)c1 (stereo not given)", "slope": "0.00557 (inactive)"}
{"compound": "Cc1cccc(N(Cc2cc3ccccc3[nH]c2=O)C(=O)c2ccco2)c1C", "slope": "0.00782 (inactive)"}
{"compound": "COc1ccccc1-n1c(=O)c2c3c(sc2n2c(SC)nnc12)CCC3", "slope": "0.00462 (inactive)"}
{"compound": "CC1(C)Cc2c(sc3nc4n(c(=O)c23)CCC4)CO1", "slope": "0.00549 (inactive)"}
{"compound": "O=C(NCc1cccnc1)/C(=N\\O)c1ccccc1", "slope": "0.00513 (inactive)"}
{"compound": "Cn1c(=O)c2c(ncn2CCO)n(C)c1=O", "slope": "0.00454 (inactive)"}
{"compound": "O=C1CC(NCc2ccc3c(c2)OCO3)C(=O)N1Cc1ccc2c(c1)OCO2 (stereo not given)", "slope": "0.00655 (inactive)"}
{"compound": "CN(CCO)CC(O)Cn1cnc2c1c(=O)n(C)c(=O)n2C (stereo not given) (tested in a mixture with another compound)", "slope": "0.00421 (inactive)"}
{"compound": "N#Cc1c(SCC(=O)O)nc(N2CCCCC2)c2c1CCCC2", "slope": "0.00499 (inactive)"}

---

- study-target: Dual specificity protein phosphatase 6 (Homo sapiens)
- experimental-protocol: DUSP6 inhibitors restoring Erk phosphorylation by chemical complementation, primary imaging in DUSP6-transfected HeLa (AID 609);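 further: phospho-Erk level distribution per well compared with pooled transfected vehicle control wells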
- run-conditions: HeLa MKP-3 transfected, phospho-Erk imaging KS statistic; at 10 µM; hits give high values; cells stimulated with TPA for 15 min

{"compound": "Cn1c2ccccc2c2nn(-c3ccccc3)c(=O)cc21", "inhibition [%]": -8.59}
{"compound": "Cc1occc1C(=O)OCC(=O)Nc1ccc(F)cc1", "inhibition [%]": 29.3}
{"compound": "CCCCN(CCCC)CCCOC(=O)c1ccc(N)cc1", "inhibition [%]": -4.44}
{"compound": "Cc1ccccc1N1C(=O)C2ON(c3ccccc3)C(c3ccncc3)C2C1=O (stereo unspecified)", "inhibition [%]": -12.3}
{"compound": "CC(=O)N=c1sc(S(N)(=O)=O)nn1C", "inhibition [%]": 9.37}
{"compound": "CC1(C)Cc2c(sc3nc(SCC#N)n(C4CCCCC4)c(=O)c23)CO1", "inhibition [%]": 6.04}

---

- study-target: Dual specificity protein phosphatase 6 (Homo sapiens) (UniProt Q16828)
- Sequence (Q16828 whole entry, looked up): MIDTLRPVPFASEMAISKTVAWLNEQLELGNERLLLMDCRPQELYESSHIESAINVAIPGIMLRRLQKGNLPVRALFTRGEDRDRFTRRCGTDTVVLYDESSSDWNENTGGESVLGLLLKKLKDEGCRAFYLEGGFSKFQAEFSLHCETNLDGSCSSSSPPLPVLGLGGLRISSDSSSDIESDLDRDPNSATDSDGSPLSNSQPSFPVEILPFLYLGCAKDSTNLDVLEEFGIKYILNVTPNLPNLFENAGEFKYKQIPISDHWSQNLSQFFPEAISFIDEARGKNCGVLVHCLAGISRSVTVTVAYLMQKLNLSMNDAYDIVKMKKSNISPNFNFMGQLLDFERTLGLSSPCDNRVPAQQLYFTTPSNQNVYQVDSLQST
- experimental-protocol: DUSP6 inhibitors restoring Erk phosphorylation by chemical complementation, primary imaging in DUSP6-transfected HeLa (AID 609);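 further: phospho-Erk level distribution per well compared with pooled transfected vehicle control wells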
- run-conditions: HeLa MKP-3 transfected, phospho-Erk imaging KS statistic; at 10 µM; hits give high values; cells stimulated with TPA for 15 min

{"compound": "Cc1ccc2[nH]c3c(N4CCN(Cc5ccccc5)CC4)ncnc3c2c1", "inhibition [%]": 10.5}
{"compound": "CC(C)(C)NCC(O)COc1cccc2c1C[C@H](O)[C@H](O)C2 (stereo not given in full)", "inhibition [%]": -0.828}
{"compound": "COc1ccc(C2CC(C(F)(F)F)n3ncc(C(=O)Nc4cccc(O)c4)c3N2)cc1OC (stereo not given)", "inhibition [%]": 1.75}
{"compound": "CCCc1cc(=O)oc2c(CN3CCN(C)CC3)c(O)c(Cl)cc12", "inhibition [%]": "1.6e-07"}
{"compound": "CSc1nc(C)cc(OCCNS(=O)(=O)c2cc(C)ccc2C)n1", "inhibition [%]": 12.3}

---

- study-target: Solute carrier family 12 member 5 (Homo sapiens) (UniProt Q9H2X9)
- Sequence (Q9H2X9 whole entry, looked up): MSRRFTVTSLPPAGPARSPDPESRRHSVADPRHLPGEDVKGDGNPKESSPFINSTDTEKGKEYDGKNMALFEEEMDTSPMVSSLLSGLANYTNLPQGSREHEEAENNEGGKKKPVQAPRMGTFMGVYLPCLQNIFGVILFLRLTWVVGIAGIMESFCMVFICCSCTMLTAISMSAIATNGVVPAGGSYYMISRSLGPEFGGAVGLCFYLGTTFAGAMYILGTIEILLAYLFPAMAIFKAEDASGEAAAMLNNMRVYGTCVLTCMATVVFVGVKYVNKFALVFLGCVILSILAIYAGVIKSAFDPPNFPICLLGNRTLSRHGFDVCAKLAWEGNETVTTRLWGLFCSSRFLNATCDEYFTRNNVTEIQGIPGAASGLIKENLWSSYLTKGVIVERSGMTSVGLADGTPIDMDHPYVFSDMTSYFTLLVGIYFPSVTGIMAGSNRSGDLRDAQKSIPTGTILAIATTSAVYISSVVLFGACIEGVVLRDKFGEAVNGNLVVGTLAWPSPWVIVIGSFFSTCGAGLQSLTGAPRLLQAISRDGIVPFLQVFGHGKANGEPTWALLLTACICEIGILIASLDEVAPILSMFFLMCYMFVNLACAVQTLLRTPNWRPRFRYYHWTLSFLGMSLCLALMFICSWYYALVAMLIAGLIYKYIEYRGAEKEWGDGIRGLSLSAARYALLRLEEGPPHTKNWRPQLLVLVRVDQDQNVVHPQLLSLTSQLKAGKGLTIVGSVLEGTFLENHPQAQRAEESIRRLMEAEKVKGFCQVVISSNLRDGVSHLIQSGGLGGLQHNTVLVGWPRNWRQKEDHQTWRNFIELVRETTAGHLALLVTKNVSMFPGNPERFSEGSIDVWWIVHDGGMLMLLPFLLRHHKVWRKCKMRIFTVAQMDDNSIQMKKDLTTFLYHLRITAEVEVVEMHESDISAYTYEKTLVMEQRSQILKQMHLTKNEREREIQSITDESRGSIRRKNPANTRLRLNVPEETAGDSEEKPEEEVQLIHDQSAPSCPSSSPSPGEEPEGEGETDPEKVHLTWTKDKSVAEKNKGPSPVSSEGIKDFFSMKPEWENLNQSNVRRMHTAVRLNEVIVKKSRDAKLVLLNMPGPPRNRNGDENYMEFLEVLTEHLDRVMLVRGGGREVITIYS
- experimental-protocol: KCC2 inhibitors and activators, ouabain retest, confirmation, HEK-KCC2 cells (AID 1717);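 further: slope of initial-normalized fluorescence between seconds 10 and 20 after thallium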
- run-conditions: HEK293-KCC2, thallium flux FluoZin2 fluorescence, at 10 µM, bidirectional: low = inhibitor, high = activator
The list shows a part of the results. Inconclusive results are not listed.
Assign TRUE whenever raw Tl+ flux slope (below DMSO = inhibition, above = activation) does not fall below 0.02; assign FALSE whenever it does.

{"compound": "CC(C)CNC(=S)NC(=O)c1ccc(Cl)cc1", "answer-label": "TRUE"}
{"compound": "Cc1nc(SCc2ccc(F)cc2)c([N+](=O)[O-])[nH]1", "answer-label": "TRUE"}
{"compound": "O=C(CSC1=NCCS1)Nc1nc(-c2ccccc2)cs1", "answer-label": "FALSE"}
{"compound": "Cc1cccc(NC(=S)NC(=O)c2ccc(Br)o2)c1", "answer-label": "TRUE"}
{"compound": "CCCn1c(=S)[nH]c2ccc(C(F)(F)F)cc21", "answer-label": "TRUE"}
{"compound": "C=CCNC(=S)N/N=C/c1ccc(C)s1", "answer-label": "TRUE"}
{"compound": "Cc1ccc(N=Cc2c(O)n(-c3nccs3)c(=O)c3ccccc23)c(C)c1", "answer-label": "TRUE"}
{"compound": "Cc1c(C(=O)NC(=S)NCc2cccnc2)oc2ccccc12", "answer-label": "TRUE"}
{"compound": "CCOC(=O)c1ccccc1N1C(=O)C2Sc3[nH]c(=O)sc3C(/C=C/c3ccccc3)C2C1=O (stereo not drawn)", "answer-label": "FALSE"}
{"compound": "CCOc1ccc(C(=O)NCCCN2CCCC2=O)cc1", "answer-label": "TRUE"}
{"compound": "CNC(=O)/C(=C\\C=C\\c1ccccc1)NC(=O)c1ccc([N+](=O)[O-])cc1", "answer-label": "FALSE"}
{"compound": "COc1cccc(NC(=S)NC(=O)c2c(Cl)c(C)nn2C)c1", "answer-label": "TRUE"}
{"compound": "CC(=O)NNc1cc(=O)c2c(=O)n(C)c(=O)n(C)c2[nH]1", "answer-label": "FALSE"}
{"compound": "Cc1ccccc1NC(=S)NNC(=O)c1cccc(Br)c1", "answer-label": "TRUE"}
{"compound": "C/C(=N\\NC(=S)Nc1ccc(C)cc1)c1cc2ccccc2o1", "answer-label": "TRUE"}
{"compound": "O=C(Cn1cnc2c(nnn2Cc2ccc(F)cc2)c1=O)NCc1ccc2c(c1)OCO2", "answer-label": "FALSE"}
{"compound": "Cc1ccccc1-c1nc(CS(=O)(=O)CC(=O)N2CCc3ccccc3C2)c(C)o1", "answer-label": "FALSE"}
{"compound": "O=C(COC(=O)c1cc([N+](=O)[O-])ccc1NCc1ccccc1)NC1CCCCC1", "answer-label": "FALSE"}
{"compound": "Cc1cc(C)c2cc(CN(Cc3cccs3)Cc3nnnn3CC3CCCO3)c(=O)[nH]c2c1 (stereo not drawn)", "answer-label": "FALSE"}
{"compound": "Cc1c(NC(=O)CSc2cccc3cccnc23)c(=O)n(-c2ccccc2)n1C", "answer-label": "TRUE"}
{"compound": "CCNCc1cc2cc(C)ccc2[nH]c1=O", "answer-label": "FALSE"}

---

- experimental-protocol: inhibitors of larval lipid processing in zebrafish, primary screen, whole organism, PED6 fluorescence, gall bladder and intestine (AID 686);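 further: larvae 5 to 7 days old with five fish per well; signal comes from phospholipase A2 cleavage of quenched PED6 carried via bile; overnight exposure to compound and PED6 before scoring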
- run-conditions: Zebrafish larvae PED6 lipid processing, fluorescence scoring; screened at 20 µM (by protocol)
The source made the active and inactive calls.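 How the source made its calls: active means a full or partial loss of lipid-probe fluorescence in the fish gall bladder, intestine or both, judged by eye; inactive means no fluorescence loss, or compound toxic to the fish.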

{"compound": "N=c1c[n+](N2CCOCC2)[n-]o1", "outcome": "inactive"}
{"compound": "O=C(NCCN1CCCCC1)c1ccc(=O)oc1", "outcome": "inactive"}
{"compound": "COc1ccc(OC)c(NC(=O)CSC2=C(C#N)C(c3ccco3)C3=C(CCCC3=O)N2)c1 (centres undefined)", "outcome": "inactive"}
{"compound": "Cc1[nH]nc2c1C(CCc1ccccc1)C(C#N)=C(N)O2 (centres undefined)", "outcome": "inactive"}
{"compound": "CCOC(=O)c1ccccc1OCc1cc(/C=N/n2cncn2)ccc1OC", "outcome": "inactive"}
{"compound": "COc1ccc(Cl)cc1N=Cc1c(O)cc(C)oc1=O", "outcome": "inactive"}
{"compound": "C/C(=N\\O)c1ccc2[nH]ccc2c1", "outcome": "inactive"}
{"compound": "O=C(CC(c1ccccc1)c1ccco1)N1CCOCC1 (centres undefined)", "outcome": "inactive"}
{"compound": "COc1ccc(-c2nn3c(COc4ccccc4)nnc3s2)cc1OC", "outcome": "inactive"}
{"compound": "CC1(C)CN(O)CCN1O", "outcome": "inactive"}
{"compound": "COc1ccccc1C1(CC(=O)N2CCOCC2)CCOC(C(C)C)C1 (centres undefined)", "outcome": "inactive"}
{"compound": "Cc1cc(NCC2CCCO2)n2c(nc3ccccc32)c1C#N (centres undefined)", "outcome": "inactive"}
{"compound": "CC(C)OC(=O)C(C#N)c1nc2ccccc2nc1N1CCCC1 (centres undefined)", "outcome": "inactive"}
{"compound": "O=C(C1=C(O)C(=O)N(CCCN2CCOCC2)C1c1ccccn1)c1cccs1 (centres undefined)", "outcome": "inactive"}
{"compound": "O=c1[nH]c(CN2CCCCC2)nc2c1C1(CCCC1)Cc1ccccc1-2", "outcome": "inactive"}
{"compound": "CCOC(=O)C1CSc2[nH]c(=O)sc2C1c1ccccc1 (centres undefined)", "outcome": "inactive"}
{"compound": "CCn1cc(C(=O)NCc2ccccn2)c(=O)c2cc(F)c(N3CCN(C)CC3)cc21", "outcome": "inactive"}
{"compound": "Cc1ccc(C2/C(=C(\\O)c3cnn(-c4ccccc4)c3C)C(=O)C(=O)N2CCN(C)C)o1 (centres undefined)", "outcome": "inactive"}
{"compound": "C[C@@H]1C[C@H]2[C@@H]3CCC4=CC(=O)C=C[C@]4(C)[C@@]3(F)[C@@H](O)C[C@]2(C)[C@H]1C(=O)CO", "outcome": "inactive"}
{"compound": "CC(C)CC(=O)Nc1ccccc1N1CCCC1", "outcome": "inactive"}
{"compound": "Cc1cc(C)n(C(=O)CN2C(=O)CCC2=O)n1", "outcome": "inactive"}
{"compound": "O=CN1CCN(C(=O)CN2C(=O)c3ccccc3C2=O)CC1", "outcome": "inactive"}
